biological target: Human neutrophil elastase (Homo sapiens (Human), UniProt P08246); assay: Human Neutrophil Elastase Assay; settings: substrate MeOSuc-Ala-Ala-Pro-Val-AMC 250 μM, fluorescence, pH 7.5
Sequence (P08246 30-247): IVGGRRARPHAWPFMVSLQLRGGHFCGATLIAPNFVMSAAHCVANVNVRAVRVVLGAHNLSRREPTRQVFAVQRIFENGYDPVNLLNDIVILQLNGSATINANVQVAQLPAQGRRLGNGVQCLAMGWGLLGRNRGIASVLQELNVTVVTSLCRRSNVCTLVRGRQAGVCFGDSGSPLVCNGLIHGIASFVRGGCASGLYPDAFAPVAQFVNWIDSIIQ
Assignment: determine reported pIC50 for the given compounds.
One number for each entry, as −log10 of the molar value.

Worked cases, answers included:
[[record]]
compound = "Cc1cc(CNC(=O)c2cn(C(C)C)c(C)c(-c3cccc(C(F)(F)F)c3)c2=O)ccc1S(C)(=O)=NC#N (stereo not shown)"
system_name = "Human neutrophil elastase (Homo sapiens (Human), UniProt P08246)"
quantitative_readout = 8.47

[[record]]
compound = "Cc1c(-c2cccc(C(F)(F)F)c2)c(=O)c(C(=O)NCc2ccc(S(C)(=O)=NC#N)cc2)cn1-c1ccnn1C (stereo not shown) [Example 8]"
system_name = "Human neutrophil elastase (Homo sapiens (Human), UniProt P08246)"
quantitative_readout = 8.62

[[record]]
compound = "Cc1c(-c2cccc(C(F)F)c2)c(=O)c(C(=O)NCc2ccc(S(C)(=O)=NC#N)cc2)cn1-c1cccnc1 (single isomer, unassigned)"
system_name = "Human neutrophil elastase (Homo sapiens (Human), UniProt P08246)"
quantitative_readout = 8.43

[[record]]
compound = "Cc1c(-c2ccnc(C(F)(F)F)c2)c(=O)c(C(=O)NCc2ccc(S(C)(=O)=NC#N)cc2)cn1C(C)C (single isomer, unassigned) [Example 3A]"
system_name = "Human neutrophil elastase (Homo sapiens (Human), UniProt P08246)"
quantitative_readout = 7.92

[[record]]
compound = "CCS(=O)(=NC#N)c1ccc(CNC(=O)c2cn(-c3ccnn3C)c(C)c(-c3cccc(C(F)F)c3)c2=O)cc1 (stereo not shown)"
system_name = "Human neutrophil elastase (Homo sapiens (Human), UniProt P08246)"
quantitative_readout = 9.00


Quick batch: pIC50 for everything below.
1. CCn1cc(C(=O)NCc2ccc(S(=O)(CC)=NC#N)cc2)c(=O)c(-c2cccc(C(F)F)c2)c1C (single isomer, unassigned) [Example 29A]
2. Cc1c(-c2cccc(C(F)(F)F)c2)c(=O)c(C(=O)NCc2ccc(S(C)(=O)=NC#N)cc2)cn1-c1cncnc1 (single isomer, unassigned)
3. Cc1c(-c2cccc(C(F)(F)F)c2)c(=O)c(C(=O)NCc2ccc(S(C)(=O)=NC#N)cc2)cn1-c1ccnn1C (single isomer, unassigned) [Example 47]
4. CCn1cc(C(=O)NCc2ccc(S(C)(=O)=NC#N)cc2)c(=O)c(-c2cccc(C(F)F)c2)c1C (stereo not shown)
5. CN=S(=O)(c1ccc(CNC(=O)c2cn(C(C)C)c(C)c(-c3cccc(C(F)F)c3)c2=O)cc1)N(C)C (stereo not shown)
6. Cc1c(-c2ccnc(C(F)(F)F)c2)c(=O)c(C(=O)NCc2ccc(S(C)(=O)=NC#N)cc2)cn1-c1ccncc1 (single isomer, unassigned)

1. 8.66
2. 8.48
3. 8.92
4. 8.60
5. 7.99
6. 7.93
